Data origin: patent US20260209325A1

Target: T1, human pro-myostatin (human, UniProt O14793 24-375, biotinylated (in the SPR assay))
T1 construct: Disulfide-linked homodimer; also called proGDF8 (human)
Assay: SPR Biacore 8K, biotin-antigen captured

binder	display.unit	Kd
Ab139 (antibody, human IgG4 S228P, kappa, V domains shown) VH: EVQLVESGGGLVQPGGSLRLSCAASGFTFSSYGMSWVRQAPGKGLELVASFTGSGAAYYPDSVKGRFTISRDNAKNSLYLQMNSLRAEDTAVYYCARDLLIRFLEWSHYYGMDVWGQGTTVTVSS VL: DIVMTQSPLSLPVTPGEPASISCRSSQSLLHSSGHNFLHWYLQKPGQSPQLLIYESSNRVSGVPDRFSGSGSGTDFTLKISRVEAEDVGVYYCQQQTQYPPTFGGGTKVEIKR	nM	0.121
Ab115 (antibody, human IgG4 S228P, kappa, V domains shown) VH: QVQLVQSGAEVKKPGASVKVSCKVSGYAFTNYNIHWVRQAPGKGLEWMGGINPRTGGTIYAQKFQGRVTMTEDTSTDTAYMELSSLKSEDTAVYYCAKDIYTGVAVAGSGMDYWGQGTLVTVSS VL: DIQMTQSPSSVSASVGDRVTITCRASQGISTHLAWYQQKPGKAPKLLIYGASNLESGVPSRFSGSGSGTDFTLTISSLQPEDFANYYCQQANSFPWTFGGGTKVEIKR	nM	3.04
Ab138 (antibody, human IgG4 S228P, kappa, V domains shown) VH: EVQLVESGGGLVQPGGSLRLSCAASGFTFTSYGMSWVRQAPGKGLELVASITGSKGETYYPDSVKGRFTISRDNAKNSLYLQMNSLRAEDTAVYYCARDLLVRFLEWSHYYGMDVWGQGTTVTVSS VL: DIVMTQSPLSLPVTPGEPASISCRSSQSLLHSSGHNFLHWYLQKPGQSPQLLIYETSNRAPGIPDRFSGSGSGTDFTLKISRVEAEDVGVYYCQQATQFPRPFGGGTKVEIKR	nM	0.11
